src = patent US11957687B2

Provide the reported half-life at 1 h, 1 µM of each item.
Assay: Microsome stability assay, mouse liver microsomes
Type: in vitro ADME
Conditions: mouse, mouse liver microsomes, pooled; 1 μM compound, 0.5 mg/mL microsomal protein, NADPH, 37° C.; read-out: Microsome Stability Mouse liver microsomes T½

Which half-life at 1 h, 1 µM value is on record for Cc1ccc2c(c1)Sc1cc(C)ccc1C2NC(=O)c1ccc(C(F)(F)F)[nH]c1=O ?
33.2 min

Any idea what its half-life at 1 h, 1 µM is? The compound is CCC1Cc2cc(OC)ccc2C(NC(=O)c2ccc(C(F)(F)F)[nH]c2=O)C1 (centres unmarked)
82.3 min

Look up half-life at 1 h, 1 µM: COc1ccc2c(c1)Oc1cc(OC)ccc1C2NC(=O)c1ccc(C(F)F)[nH]c1=O
44.7 min

State the recorded half-life at 1 h, 1 µM for this entry: Cc1ccc(C(NC(=O)c2ccc(C(F)(F)F)[nH]c2=O)c2ccc(C)cc2)cc1
14.3 min

Which value of half-life at 1 h, 1 µM has been reported for Cc1ccc2c(c1)OCCC2NC(=O)c1ccc(C(F)(F)F)[nH]c1=O (centres unmarked) in the records?
135 min

Using the record for Cc1ccc(C(CC2CCC2)NC(=O)c2ccc(C(F)(F)F)[nH]c2=O)cc1 (centres unmarked) , report its half-life at 1 h, 1 µM.
96.3 min

Fill in: half-life at 1 h, 1 µM of CCCC1CCc2cc(Cl)ccc2C1NC(=O)c1ccc(C(F)(F)F)[nH]c1=O (centres unmarked) is ___
46.9 min

State the recorded half-life at 1 h, 1 µM for this entry: COc1ccc2c(c1)Oc1cnccc1C2NC(=O)c1ccc(C(F)(F)F)[nH]c1=O (centres unmarked)
56.3 min
